The reported measurements were obtained from patent US20120214862A1.

system: human Factor 7 mRNA; assay: Dose-dependent antisense inhibition of human Factor 7 in HepB3 cells, transfection with lipofectin; type: cell-based; details: 50 nM, lipofectin, HepB3 cells, 16 hours
In the oligonucleotide strings, read from the 5' end, every base follows the letter of its sugar. An asterisk marks phosphorothioate; unmarked linkages are phosphodiester. Other units and linkages are bracketed, terminal groups are in braces. A string of capitals states the bases alone. e = 2'-O-(2-methoxyethyl) (MOE); [5mC] = 5-methylcytosine; d = 2'-deoxy (DNA)
MEASUREMENT TYPE: percent inhibition of Factor 7 mRNA, relative to untreated control cells
The reply should read as a number followed by its unit.

Need percent inhibition of Factor 7 mRNA, relative to untreated control cells of 422252 (antisense e[5mC]*eG*d[5mC]*d[5mC]*dG*dG*d[5mC]*dT*d[5mC]*dT*dG*d[5mC]*dT*d[5mC]*dA*eT*e[5mC]*e[5mC]*e[5mC]*e[5mC]) [compound 422252] , thanks.
77%

What do we get for 407939 (antisense eT*eG*e[5mC]*eA*eG*d[5mC]*d[5mC]*d[5mC]*dG*dG*d[5mC]*dA*d[5mC]*d[5mC]*d[5mC]*eA*eG*e[5mC]*eG*eA) [compound 407939] ?
80%

What do we get for 422130 (antisense eG*e[5mC]*e[5mC]*eT*eG*dA*dG*dG*d[5mC]*d[5mC]*dA*dG*d[5mC]*dA*dG*eA*eT*e[5mC]*eA*e[5mC]) [compound 422130] ?
77%

What do we get for 407935 (antisense eA*eT*eG*e[5mC]*eA*dT*dG*dG*dT*dG*dA*dT*dG*d[5mC]*dT*eT*e[5mC]*eT*eG*eA) [compound 407935] ?
85%

---

Record form. Attribute: % inhibition of human Factor 7 mRNA. Fill in for each entry.
system: human Factor 7 mRNA; experiment: Inhibition of human Factor 7 mRNA by 2-10-2 MOE shortmers in HepB3 cells, electroporation, 1,000 nM; assay type: cell-based; conditions: electroporation, 1,000 nM oligonucleotide, approximately 24 hours, relative to untreated control cells
In the oligonucleotide strings, read from the 5' end, every base follows the letter of its sugar. An asterisk marks phosphorothioate; unmarked linkages are phosphodiester. Other units and linkages are bracketed, terminal groups are in braces. A string of capitals states the bases alone. e = 2'-O-(2-methoxyethyl) (MOE); [5mC] = 5-methylcytosine; d = 2'-deoxy (DNA)

Need % inhibition of human Factor 7 mRNA of 435663 (antisense e[5mC]*e[5mC]*dA*d[5mC]*dA*dT*dG*dG*dA*dT*dA*dT*eT*e[5mC]) [compound 435663] , thanks.
50%

What do we get for 435722 (antisense eT*eG*dG*dG*d[5mC]*dT*dT*dG*dG*d[5mC]*dT*dG*eA*eA) [compound 435722] ?
50%

What do we get for 435500 (antisense eA*e[5mC]*dT*dG*dG*dG*dA*dG*dA*d[5mC]*d[5mC]*d[5mC]*eT*eG) [compound 435500] ?
49%

What do we get for 435504 (antisense eA*eT*dG*dT*dA*d[5mC]*dT*dG*dG*dG*dA*dG*eA*e[5mC]) [compound 435504] ?
8%

---

Record form. Attribute: % inhibition of human Factor 7 mRNA. Fill in for each entry.
tested on: human Factor 7 mRNA; experiment: Inhibition of human Factor 7 mRNA by 2-10-2 MOE shortmers in HepB3 cells, electroporation, 1,000 nM; type: cell-based; conditions: electroporation, 1,000 nM oligonucleotide, approximately 24 hours, relative to untreated control cells
In the oligonucleotide strings, read from the 5' end, every base follows the letter of its sugar. An asterisk marks phosphorothioate; unmarked linkages are phosphodiester. Other units and linkages are bracketed, terminal groups are in braces. A string of capitals states the bases alone. e = 2'-O-(2-methoxyethyl) (MOE); [5mC] = 5-methylcytosine; d = 2'-deoxy (DNA)
Hi! Could you send only the number? It should be in %, unit omitted.

Need % inhibition of human Factor 7 mRNA of 435699 (antisense eG*e[5mC]*d[5mC]*d[5mC]*d[5mC]*dA*dG*d[5mC]*dT*dG*dA*d[5mC]*eG*eA) [compound 435699] , thanks.
48

What do we get for 435740 (antisense eT*e[5mC]*dA*dT*dT*dT*d[5mC]*dA*dG*dT*dG*dA*eT*eG) [compound 435740] ?
0

What do we get for 435484 (antisense e[5mC]*e[5mC]*dT*dG*dG*dG*dT*d[5mC]*dA*dT*d[5mC]*dA*eG*e[5mC]) [compound 435484] ?
45

What do we get for 435640 (antisense eT*eG*dT*dA*dA*dG*dA*dA*dA*dT*d[5mC]*d[5mC]*eA*eG) [compound 435640] ?
2

What do we get for 435695 (antisense eG*eA*d[5mC]*dT*dG*d[5mC]*dT*dG*d[5mC]*dA*dG*dG*e[5mC]*eA) [compound 435695] ?
48

What do we get for 435679 (antisense e[5mC]*eG*d[5mC]*dT*dG*dA*dG*dG*dT*d[5mC]*dG*dT*eG*e[5mC]) [compound 435679] ?
62

What do we get for 435848 (antisense eT*eG*dG*d[5mC]*d[5mC]*dA*d[5mC]*dT*dG*d[5mC]*d[5mC]*dT*e[5mC]*eA) [compound 435848] ?
32

What do we get for 435493 (antisense eG*eA*d[5mC]*d[5mC]*d[5mC]*dT*dG*dG*dT*dG*dT*dA*e[5mC]*eA) [compound 435493] ?
58
